assay: cell viability in Huh7 cells, primary screen, cytotoxicity control for HCV replication inhibitor project, CellTiter-Glo luminescence, basal, 48 h (AID 1143);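 also: Huh7 hepatoma cells carrying a hepatitis C replication reporter with no stimulus; test concentration not given here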
setup_conditions: Huh7 HCV replicon, higher = more signal, called active from +8 up or from −8 down
For each entry below, report its z-score value.
Give bare numbers.

Known results for molecules:
INSERT INTO assay_data (molecule, outcome_measure, reported) VALUES
  ('CC(CCN1CCCCc2nc(C)c(C)cc21)=NOC(C)CN1CCCCc2nc(C)c(C)cc21 (centres undefined)', 'z-score', -2.16),
  ('COC(=O)C1=C(C)N(Cc2ccccc2)[C@]23O[C@](C(=O)OC)(C(=O)N2[C@@H]1c1ccccc1)[C@H]1CCOC(=O)[C@H]13', 'z-score', -0.147),
  ('O=C1O[C@@H](c2ccccc2)[C@@H](c2ccccc2)N2[C@@H](c3ccc(OCCO)cc3)[C@]3(C(=O)Nc4ccccc43)[C@@H](C(=O)N3CCN(c4ncccn4)CC3)[C@H]12', 'z-score', -0.704),
  ('CO[C@H]1O[C@H](CO)[C@@H](OC(=O)Nc2ccc3c(c2)OCO3)[C@H](OC(=O)Nc2ccccc2-c2ccccc2)[C@@H]1OC(=O)Nc1ccccc1-c1ccccc1', 'z-score', -3.03),
  ('CO[C@H]1O[C@H](CO)[C@@H](OC(=O)Nc2ccc(C#N)cc2)[C@H](OC(=O)c2cc3ccccc3[nH]2)[C@H]1OC(=O)c1cc2ccccc2[nH]1', 'z-score', -3.88);

// each molecule listed below needs its z-score
1. COCC(=C=CC[C@@H](O)c1ccccc1OCCO)CCO
2. O=C1[C@H]2[C@H]3[C@H](O)[C@H](O)CC(=NO[C@@H]4O[C@H](CO)[C@@H](O)[C@H](O)[C@H]4O)[C@H]3CC[C@H]2C(=O)N1Cc1ccccc1
3. CC(C)CON=C1[C@H]2CCn3c(=O)n(-c4ccccc4)c(=O)n3[C@H]2[C@H](O)[C@@H]2O[C@H]12
4. CCc1cc2c(nc1CC)CCN(CCC(C)=NOC[C@@H](O)COCc1ccco1)C2
5. COc1ccc(CCNC(=O)[C@@H]2c3ccccc3C(=O)N(c3ccc(C)cn3)[C@H]2c2ccc(CO)cc2)cc1
6. O=C1[C@H]2[C@H]3[C@H](O)[C@H](O)CC(=NO[C@@H]4O[C@H](CO)[C@@H](O)[C@H](O)[C@H]4O)[C@@H]3CC[C@H]2C(=O)N1c1ccc(F)cc1F

[0.0309, -0.871, 0.893, -0.112, 0.569, 0.115]

---

Test system: Human papillomavirus type 1a protein E7 (residues 44-93)
assay: HPV1a E7 fragment binders on microarrays, primary screen, biochemical, small-molecule microarray, residues 44-93, 635 nm fluorescence (AID 1108);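 also: E7 fragment applied at 1 µg/mL in TBST for 1 h at 4 C; score combines spot fluorescence with its signal to noise ratio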
setup_conditions: small-molecule microarray binding, fluorescence 635 nm; higher = more signal
Would you mind classing the entries by composite z-score? Ranges: low bin: < -0.1; mid bin: ≥ -0.1 and < 0.9; high bin: ≥ 0.9

Completed entries (count: 2):
INSERT INTO assay_data (molecule, category) VALUES
  ('O=C1O[C@@H](c2ccccc2)[C@@H](c2ccccc2)N2[C@@H](c3ccc(OCCO)cc3)[C@]3(C(=O)Nc4ccccc43)[C@@H](C(=O)N3CCN(c4ncccn4)CC3)[C@H]12', 'high bin'),
  ('CC(C)CON=C1C[C@@H](O)[C@@H](O)[C@@H]2[C@@H]3C(=O)N(Cc4ccccc4)C(=O)[C@@H]3CC[C@@H]12', 'mid bin');

Record CCOc1ccc(N2C(=O)/C(=C/C=C/c3ccccc3OC)S(=O)(=O)C2c2cccc([N+](=O)[O-])c2)cc1 (stereo not given) — which class?
low bin

Record: CC(C)=CCCC(C)=CCON=C1C[C@@H](O)[C@@H](O)[C@@H]2[C@@H]3C(=O)N(C[C@@H]4CCCO4)C(=O)[C@@H]3CC[C@@H]12
high bin

Record: CC(C)[C@@H](OCc1ccccc1)[C@H](C)C=NO[C@H](C)c1cn([C@H](CO)Cc2ccccc2)nn1
mid bin

Record: CCCNC(=O)[C@@H]1c2ccccc2C(=O)N(c2ccc(C)cn2)[C@H]1c1ccc(CO)cc1
low bin

Record: COCCNC(=O)OCC1CCCC2(CC(OC(=O)NCCc3ccc(F)cc3)CC(CCC(=O)N[C@@H](C)C(=O)OC)O2)O1 (stereo not given in full)
high bin

Record: COc1ccc([Si](C)(C)[C@H]2[C@H](CCO)O[C@@]3(C(=O)N(Cc4cccc(NC(=O)[C@H](C)O)c4)c4ccccc43)[C@@H]2C)cc1
high bin

---

assay: E. coli acrAB mutant growth effects, primary screen, E. coli filamentation inducers, strain DRC39, OD650, 24 h (AID 1178);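 also: growth measured as culture turbidity by optical density at 650 nm; test concentration not given here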
setup_conditions: higher = more signal, called active from +8 up or from −8 down
For each entry below, report its z-score value.
Numbers only.

Known results for molecules:
INSERT INTO measurements (molecule, reported) VALUES
  ('CCOC(=O)C[C@H]1[C@H](OC(=O)c2cc3ccccc3oc2=O)[C@@H](NC(=O)c2ccc3ccccc3n2)c2cc(OCCCO)ccc2N1C(=O)c1ccccc1', -0.341),
  ('CN1C(=O)C2C=CC(C(O)C(c3ccccc3)c3ccccc3)N(NC(=O)OC(C)(C)C)C2C1=O (centres undefined)', -0.963),
  ('O=C1[C@H]2[C@H]3[C@H](O)[C@H](O)CC(=NO[C@@H]4O[C@H](CO)[C@@H](O)[C@H](O)[C@H]4O)[C@H]3CC[C@H]2C(=O)N1C1CCCCC1', 0.411);

Now examine the next entry.
Quick check: z-score of [N-]=[N+]=NCc1ccccc1C[C@]1(C(=O)NCc2ccccc2)N=C(c2ccc(OCCCO)cc2)O[C@H]1c1ccccc1N=[N+]=[N-] ?
0.82

---

assay: binders of probe aFST on microarray, primary screen, stem cell growth factor project, biochemical, small-molecule microarray, fluorescence 635/667 (AID 1086);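 also: score merges 667 nm fluorescence with signal-to-noise of each printed compound spot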
setup_conditions: higher = more signal
outcome_measure: composite z-score
One number for each entry.

Known results for compounds:
INSERT INTO assay_data (chemical_structure, reported) VALUES
  ('CC(C)CON=C1C[C@@H](O)[C@@H](O)[C@@H]2[C@@H]3C(=O)N(C[C@@H]4CCCO4)C(=O)[C@@H]3CC[C@H]12', -0.179),
  ('C[C@@H]1C=CCC(=O)OC[C@H](C)C(=O)OC[C@H]2O[C@H]1C=C[C@H]2O', 0.512),
  ('Cc1ccc(S[C@]2(C(=O)O)CC(=O)N(Cc3ccccc3)[C@@H]2c2ccc(CO)cc2I)cc1', -0.255),
  ('O=C(NN=C1C[C@@H](O)[C@@H](O)[C@@H]2[C@@H]3C(=O)N(c4cccc(Oc5ccccc5)c4)C(=O)[C@@H]3CC[C@@H]12)OCc1ccccc1', 0.274),
  ('C=CC[C@@H]1C=C[C@H](ON=Cc2ccc(C(=O)N3[C@H](c4ccc(C)cc4)[C@@H](C)CC[C@H]3C(=O)OC)cc2)[C@@H](CO)O1', 0.108);

Now examine the next entry.
Quick check: composite z-score of C=CCOC(=O)[C@H]1[C@@H]2C(=O)O[C@@H](c3ccccc3)[C@@H](c3ccccc3)N2[C@@H](c2ccc(OCCOC(=O)[C@H]3C[C@H]4C(=O)N5CCC[C@H]5C(=O)N4[C@H]3c3cccc(OCCO)c3)cc2)[C@]12C(=O)Nc1ccc(I)cc12 ?
2.63

---

assay: basal MM1S mitochondrial membrane potential changes, profiling panel, cell-based, JC-1 fluorescence, 24 h, 100 nL compound (AID 1170); also: test concentration not given here
setup_conditions: higher = more signal
outcome_measure: z-score
Answers are plain numbers.

Known results for compounds:
INSERT INTO measurements (compound, reported) VALUES
  ('COC(=O)[C@H](C)NC(=O)CCC1CC(OC(=O)NCc2cccc3ccccc23)CC2(CCCC(COC(=O)NCCc3ccc(Cl)cc3)O2)O1 (some centres undefined)', -0.197),
  ('O=C1C[C@@H](O)[C@@H](O)[C@@H]2[C@@H]3C(=O)N(Cc4ccc5c(c4)OCO5)C(=O)[C@@H]3CC[C@@H]12', 0.358),
  ('COC(=O)[C@H](C)NC(=O)CCC1CC(OC(=O)NCc2ccc3c(c2)OCO3)CC2(CCCC(COC(=O)NCCOc3ccccc3)O2)O1 (some centres undefined)', -1.09);

Quick check: z-score of COC(=O)C1=C(C)N(Cc2ccccc2)[C@]23O[C@](C(=O)OC)(C(=O)N2[C@@H]1c1ccccc1)[C@H]1CCOC(=O)[C@H]13 ?
-0.0135

---

target_under_test: NADPH oxidase 5 (Homo sapiens) (UniProt Q96PH1)
Sequence (Q96PH1 whole entry, looked up): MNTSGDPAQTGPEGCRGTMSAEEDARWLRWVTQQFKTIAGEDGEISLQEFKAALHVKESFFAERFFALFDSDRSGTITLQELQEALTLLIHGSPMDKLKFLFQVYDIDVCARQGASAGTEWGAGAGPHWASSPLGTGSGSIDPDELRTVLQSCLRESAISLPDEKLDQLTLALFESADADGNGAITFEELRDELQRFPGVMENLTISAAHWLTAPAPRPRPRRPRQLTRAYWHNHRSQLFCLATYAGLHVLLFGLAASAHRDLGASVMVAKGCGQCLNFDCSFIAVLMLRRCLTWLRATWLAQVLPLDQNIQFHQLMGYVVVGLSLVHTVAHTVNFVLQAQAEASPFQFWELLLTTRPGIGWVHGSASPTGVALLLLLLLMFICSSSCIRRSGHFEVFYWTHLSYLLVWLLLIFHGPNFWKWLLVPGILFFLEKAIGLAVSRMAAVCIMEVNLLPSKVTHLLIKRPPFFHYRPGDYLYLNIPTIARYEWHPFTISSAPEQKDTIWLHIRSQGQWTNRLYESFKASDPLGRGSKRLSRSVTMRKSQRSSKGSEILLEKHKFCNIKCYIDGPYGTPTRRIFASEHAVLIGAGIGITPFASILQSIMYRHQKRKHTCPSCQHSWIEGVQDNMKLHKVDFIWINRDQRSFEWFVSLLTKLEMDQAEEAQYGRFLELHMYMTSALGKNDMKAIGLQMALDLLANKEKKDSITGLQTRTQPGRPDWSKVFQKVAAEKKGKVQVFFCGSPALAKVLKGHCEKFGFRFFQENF
assay: NOX5-dependent H2O2 signal modulators, primary screen, NOX inhibitor project, cell-based, HEK293-NOX5, Amplex Red fluorescence (AID 1161)
setup_conditions: HEK293-NOX5, ionomycin, 45 min, higher = more signal
outcome_measure: z-score
One number for each entry.

INSERT INTO measurements (molecule, outcome_measure, reported) VALUES
  ('O=C(NN=C1C[C@@H](O)[C@@H](O)[C@@H]2[C@@H]3C(=O)N(c4cccc(Oc5ccccc5)c4)C(=O)[C@@H]3CC[C@H]12)OCc1ccccc1', 'z-score', 0.825),
  ('O=C1[C@H]2[C@H]3[C@H](O)[C@H](O)CC(=NOCc4ccccc4)[C@@H]3CC[C@H]2C(=O)N1C1CCCCC1', 'z-score', -0.818),
  ('C#CCCCON=C1C[C@@H](O)[C@@H](O)[C@@H]2[C@@H]3C(=O)N(c4cccc(Oc5ccccc5)c4)C(=O)[C@@H]3CC[C@@H]12', 'z-score', -0.786);

// each molecule listed below needs its z-score
1. COc1ccc(O[C@H]2C=C[C@@H](c3ccccc3)O[C@@H]2COC(=O)CCC(C)=NOC[C@@H](C)[C@H](OCc2ccccc2)C(C)C)cc1
2. CCCC=C(CCC)[C@@H](NC(=O)c1ccc(-c2ccccc2)cc1)c1ccc(C(=O)OC)cc1
3. C=CCC(OC(C)=O)[C@@H]1[C@@H](N(Cc2cc3ccccc3o2)C(=O)Cc2ccc(F)cc2)c2cc(OCCCO)ccc2N1C(=O)Cc1ccc(OC)cc1 (some centres not stated)
4. CO[C@@H]1COC(=O)CC=C[C@@H](C)[C@H](OC)COC(=O)[C@H](COCc2ccccc2)NC(=O)CC=C[C@H]1C

[0.329, 1.81, -0.743, 0.0539]
